MEASUREMENT_DESCRIPTION: Long-term/accelerated stability
Type: physicochemical
PARTICULARS: 25° C./60% RH, 1 month
READOUT_LABEL: Purity % 1 month
Answer format: number, then unit.

Exercise: Provide one value: measured Purity % 1 month of CCc1c(F)ccc2cc(O)cc(-c3nc4c5c(nc(OC[C@@]67CCCN6C[C@H](F)C7)nc5c3F)N3C[C@H]5CC[C@H](N5)[C@H]3CO4)c12 [Crystal form J]
Solution: 99.5%

Exercise: Note Purity % 1 month for the compound shown: CCc1c(F)ccc2cc(O)cc(-c3nc4c5c(nc(OC[C@@]67CCCN6C[C@H](F)C7)nc5c3F)N3C[C@H]5CC[C@H](N5)[C@H]3CO4)c12 [Crystal form K]
Solution: 99.7%

Exercise: Look up Purity % 1 month of CCc1c(F)ccc2cc(O)cc(-c3nc4c5c(nc(OC[C@@]67CCCN6C[C@H](F)C7)nc5c3F)N3C[C@H]5CC[C@H](N5)[C@H]3CO4)c12 [Crystal form A] and report it.
Solution: 99.3%

Exercise: Annotate the compound CCc1c(F)ccc2cc(O)cc(-c3nc4c5c(nc(OC[C@@]67CCCN6C[C@H](F)C7)nc5c3F)N3C[C@H]5CC[C@H](N5)[C@H]3CO4)c12 [Crystal form I] with its measured Purity % 1 month.
Solution: 99.6%

Exercise: Answer with the recorded Purity % 1 month for the compound listed here: CCc1c(F)ccc2cc(O)cc(-c3nc4c5c(nc(OC[C@@]67CCCN6C[C@H](F)C7)nc5c3F)N3C[C@H]5CC[C@H](N5)[C@H]3CO4)c12 [Crystal form B]
Solution: 99.4%

Exercise: State its Purity % 1 month: CCc1c(F)ccc2cc(O)cc(-c3nc4c5c(nc(OC[C@@]67CCCN6C[C@H](F)C7)nc5c3F)N3C[C@H]5CC[C@H](N5)[C@H]3CO4)c12 [Crystal form C]
Solution: 99.7%

---

MEASUREMENT_DESCRIPTION: Crystal form stability study (influencing factor experiments)
Assay type: physicochemical
PARTICULARS: 75% RH, 30 days, open container
READOUT_LABEL: Purity % (%)
Your answer should be a plain number; it is taken to be in %.

Exercise: Return reported Purity %. Input compound: CCc1c(F)ccc2cc(O)cc(-c3nc4c5c(nc(OC[C@@]67CCCN6C[C@H](F)C7)nc5c3F)N3C[C@H]5CC[C@H](N5)[C@H]3CO4)c12 [Crystal form C]
Solution: 99.5

Exercise: Hello, please tell me recorded Purity % for this one: CCc1c(F)ccc2cc(O)cc(-c3nc4c5c(nc(OC[C@@]67CCCN6C[C@H](F)C7)nc5c3F)N3C[C@H]5CC[C@H](N5)[C@H]3CO4)c12 [Crystal form B]
Solution: 99.3

Exercise: Please report the measured Purity % for CCc1c(F)ccc2cc(O)cc(-c3nc4c5c(nc(OC[C@@]67CCCN6C[C@H](F)C7)nc5c3F)N3C[C@H]5CC[C@H](N5)[C@H]3CO4)c12 [Crystal form J]
Solution: 99.5

---

MEASUREMENT_DESCRIPTION: Crystal form stability study (influencing factor experiments)
Type: physicochemical
PARTICULARS: 92.5% RH, 5 days, open container
Experimental: Samples of the crystal forms A, B, C, I, J, and K of the compound represented by formula (I) were taken, spread in open containers, and left to stand under conditions of light exposure (4500 Lux), high temperatures (40° C. and 60° C.), and high humidities (RH 75% and RH 92.5%) for 30 days to investigate their stability, and the results are shown in Table 16.
READOUT_LABEL: Purity %
Please provide the amount together with its unit, number first.

Exercise: Give the reported value of Purity % for this record: CCc1c(F)ccc2cc(O)cc(-c3nc4c5c(nc(OC[C@@]67CCCN6C[C@H](F)C7)nc5c3F)N3C[C@H]5CC[C@H](N5)[C@H]3CO4)c12 [Crystal form B]
Solution: 99.4%

Exercise: Give recorded Purity %. CCc1c(F)ccc2cc(O)cc(-c3nc4c5c(nc(OC[C@@]67CCCN6C[C@H](F)C7)nc5c3F)N3C[C@H]5CC[C@H](N5)[C@H]3CO4)c12 [Crystal form C]
Solution: 99.6%

Exercise: Provide measured Purity % value, entry: CCc1c(F)ccc2cc(O)cc(-c3nc4c5c(nc(OC[C@@]67CCCN6C[C@H](F)C7)nc5c3F)N3C[C@H]5CC[C@H](N5)[C@H]3CO4)c12 [Crystal form I]
Solution: 99.5%

Exercise: In one line, give reported Purity % of the entry CCc1c(F)ccc2cc(O)cc(-c3nc4c5c(nc(OC[C@@]67CCCN6C[C@H](F)C7)nc5c3F)N3C[C@H]5CC[C@H](N5)[C@H]3CO4)c12 [Crystal form A] .
Solution: 99.3%

Exercise: Return Purity % for the following molecule: CCc1c(F)ccc2cc(O)cc(-c3nc4c5c(nc(OC[C@@]67CCCN6C[C@H](F)C7)nc5c3F)N3C[C@H]5CC[C@H](N5)[C@H]3CO4)c12 [Crystal form J]
Solution: 99.6%

Exercise: Could you please provide reported Purity % for CCc1c(F)ccc2cc(O)cc(-c3nc4c5c(nc(OC[C@@]67CCCN6C[C@H](F)C7)nc5c3F)N3C[C@H]5CC[C@H](N5)[C@H]3CO4)c12 [Crystal form K] ? Thanks!
Solution: 99.8%

---

MEASUREMENT_DESCRIPTION: Crystal form stability study (influencing factor experiments)
Type: physicochemical
PARTICULARS: 92.5% RH, 30 days, open container
READOUT_LABEL: Crystal form

Example cases with answers are listed next.
[[record]]
molecule = "CCc1c(F)ccc2cc(O)cc(-c3nc4c5c(nc(OC[C@@]67CCCN6C[C@H](F)C7)nc5c3F)N3C[C@H]5CC[C@H](N5)[C@H]3CO4)c12 [Crystal form B]"
readout_label = "Crystal form"
test_value = "Did not change"

[[record]]
molecule = "CCc1c(F)ccc2cc(O)cc(-c3nc4c5c(nc(OC[C@@]67CCCN6C[C@H](F)C7)nc5c3F)N3C[C@H]5CC[C@H](N5)[C@H]3CO4)c12 [Crystal form A]"
readout_label = "Crystal form"
test_value = "Did not change"

[[record]]
molecule = "CCc1c(F)ccc2cc(O)cc(-c3nc4c5c(nc(OC[C@@]67CCCN6C[C@H](F)C7)nc5c3F)N3C[C@H]5CC[C@H](N5)[C@H]3CO4)c12 [Crystal form C]"
readout_label = "Crystal form"
test_value = "Did not change"

[[record]]
molecule = "CCc1c(F)ccc2cc(O)cc(-c3nc4c5c(nc(OC[C@@]67CCCN6C[C@H](F)C7)nc5c3F)N3C[C@H]5CC[C@H](N5)[C@H]3CO4)c12 [Crystal form K]"
readout_label = "Crystal form"
test_value = "Did not change"

[[record]]
molecule = "CCc1c(F)ccc2cc(O)cc(-c3nc4c5c(nc(OC[C@@]67CCCN6C[C@H](F)C7)nc5c3F)N3C[C@H]5CC[C@H](N5)[C@H]3CO4)c12 [Crystal form J]"
readout_label = "Crystal form"
test_value = "Did not change"


Now examine the next entry.
Exercise: Quote Crystal form reported for CCc1c(F)ccc2cc(O)cc(-c3nc4c5c(nc(OC[C@@]67CCCN6C[C@H](F)C7)nc5c3F)N3C[C@H]5CC[C@H](N5)[C@H]3CO4)c12 [Crystal form I] please.
Solution: Did not change

---

MEASUREMENT_DESCRIPTION: Crystal form stability study (influencing factor experiments)
Assay type: physicochemical
PARTICULARS: light exposure (4500 Lux), 10 days, open container
READOUT_LABEL: Purity % (%)
Only the number, expressed in %, is required.

Exercise: Identify the reported Purity % for the following entry. CCc1c(F)ccc2cc(O)cc(-c3nc4c5c(nc(OC[C@@]67CCCN6C[C@H](F)C7)nc5c3F)N3C[C@H]5CC[C@H](N5)[C@H]3CO4)c12 [Crystal form K]
Solution: 98.9

Exercise: For CCc1c(F)ccc2cc(O)cc(-c3nc4c5c(nc(OC[C@@]67CCCN6C[C@H](F)C7)nc5c3F)N3C[C@H]5CC[C@H](N5)[C@H]3CO4)c12 [Crystal form C] , write its Purity %.
Solution: 98.7

Exercise: Read off the recorded Purity % for CCc1c(F)ccc2cc(O)cc(-c3nc4c5c(nc(OC[C@@]67CCCN6C[C@H](F)C7)nc5c3F)N3C[C@H]5CC[C@H](N5)[C@H]3CO4)c12 [Crystal form B]
Solution: 99.1

Exercise: Read off the recorded Purity % for CCc1c(F)ccc2cc(O)cc(-c3nc4c5c(nc(OC[C@@]67CCCN6C[C@H](F)C7)nc5c3F)N3C[C@H]5CC[C@H](N5)[C@H]3CO4)c12 [Crystal form A]
Solution: 98.5

Exercise: Supply measured Purity % of CCc1c(F)ccc2cc(O)cc(-c3nc4c5c(nc(OC[C@@]67CCCN6C[C@H](F)C7)nc5c3F)N3C[C@H]5CC[C@H](N5)[C@H]3CO4)c12 [Crystal form J] in your reply.
Solution: 95.5

Exercise: Quick one: give measured Purity % for CCc1c(F)ccc2cc(O)cc(-c3nc4c5c(nc(OC[C@@]67CCCN6C[C@H](F)C7)nc5c3F)N3C[C@H]5CC[C@H](N5)[C@H]3CO4)c12 [Crystal form I]
Solution: 99.5

Source listed as patent US20260209250A1.
